Test system: Micrococcus luteus
Test: Antibacterial activity against Micrococcus luteus ATCC 4698 after 18 to 24 hrs
Format: functional
Details: NCTC 2665
Task for the reader: assign each of the following compounds its reported MIC.
One number for each entry, in µg/mL.

| cpdSmiles | quantity | endpointUnit | endpointResult |
| --- | --- | --- | --- |
| CCn1cc(-c2csc(N)n2)c(=O)c2cccc(F)c21 | MIC | µg/mL | 2.7 |
| CCn1cc(C(C)=O)c(=O)c2cc(N3CCOCC3)c(Cl)cc21 | MIC | µg/mL | 53.3 |
| CCn1cc(-c2csc(N)n2)c(=O)c2cc(F)c(F)cc21 | MIC | µg/mL | 5.3 |
| CCn1cc(-c2csc(N)n2)c(=O)c2cc(F)c(Cl)cc21 | MIC | µg/mL | 26.6 |
| CCn1cc(C(C)=O)c(=O)c2cc(F)c(N3CCCCC3)cc21 | MIC | µg/mL | 10.1 |

Would you be so kind as to report MIC for each listed record?
1. CCn1cc(-c2csc(N)n2)c(=O)c2cc(F)c(N3CCN(C(=O)OC(C)(C)C)CC3)cc21
2. CCn1cc(-c2csc(N)n2)c(=O)c2cc(F)cc(F)c21
3. CCn1cc(-c2csc(N)n2)c(=O)c2cc(N3CCN(C(=O)OC(C)(C)C)CC3)c(Cl)cc21
4. CCn1cc(-c2csc(N)n2)c(=O)c2cc(F)c(N3CCOCC3)cc21
5. CCn1cc(-c2csc(N)n2)c(=O)c2cc(N3CCOCC3)c(Cl)cc21
6. CCn1cc(C(C)=O)c(=O)c2cc(F)c(N3CCCC3)cc21
7. CCn1cc(-c2csc(N)n2)c(=O)c2cc(OC)ccc21
8. CCn1cc(-c2csc(N)n2)c(=O)c2cc(F)c(N3CCCC3)cc21

1. 32
2. 256
3. 53.2
4. 13.3
5. 128
6. 244
7. 42.7
8. 107

----------
Task for the reader: assign each of the following compounds its reported MIC.
Tested on: Pseudomonas aeruginosa
Assay: Antibacterial activity against Pseudomonas aeruginosa ATCC 9027 after 18 to 24 hrs
Format: functional

| cpdSmiles | endpointResult |
| --- | --- |
| CCn1cc(-c2csc(N)n2)c(=O)c2cc(N3CCN(C(=O)OC(C)(C)C)CC3)c(Cl)cc21 | 8 µg/mL |

Would you be so kind as to report MIC for each listed record?
1. CCn1cc(C(C)=O)c(=O)c2cc(N3CCCCC3)c(Cl)cc21
2. CCn1cc(C(C)=O)c(=O)c2cc(F)c(N3CCOCC3)cc21
3. CCn1cc(-c2csc(N)n2)c(=O)c2cc(F)c(F)cc21

1: 42.7 µg/mL; 2: 256 µg/mL; 3: 78.6 µg/mL

----------
Task for the reader: assign each of the following compounds its reported MIC.
Test system: Micrococcus luteus
Assay: Antibacterial activity against Micrococcus luteus ATCC 4698 after 18 to 24 hrs
Assay type: functional
Settings: NCTC 2665

| cpdSmiles | MIC |
| --- | --- |
| CCn1cc(-c2csc(N)n2)c(=O)c2cc(Cl)cc(Cl)c21 | 16 µg/mL |

Would you be so kind as to report MIC for each listed record?
1. O=C(N[C@H](CO)[C@H](O)c1ccc([N+](=O)[O-])cc1)C(Cl)Cl
2. CCn1cc(C(C)=O)c(=O)c2cc(N3CCCCC3)c(Cl)cc21
3. CCn1cc(-c2csc(N)n2)c(=O)c2cc(F)ccc21

13.3 µg/mL
37.3 µg/mL
18.7 µg/mL
